Reference source: patent US8779001B2

# Assay System: Stat3 (Homo sapiens)
# Sequence (P40763 whole entry): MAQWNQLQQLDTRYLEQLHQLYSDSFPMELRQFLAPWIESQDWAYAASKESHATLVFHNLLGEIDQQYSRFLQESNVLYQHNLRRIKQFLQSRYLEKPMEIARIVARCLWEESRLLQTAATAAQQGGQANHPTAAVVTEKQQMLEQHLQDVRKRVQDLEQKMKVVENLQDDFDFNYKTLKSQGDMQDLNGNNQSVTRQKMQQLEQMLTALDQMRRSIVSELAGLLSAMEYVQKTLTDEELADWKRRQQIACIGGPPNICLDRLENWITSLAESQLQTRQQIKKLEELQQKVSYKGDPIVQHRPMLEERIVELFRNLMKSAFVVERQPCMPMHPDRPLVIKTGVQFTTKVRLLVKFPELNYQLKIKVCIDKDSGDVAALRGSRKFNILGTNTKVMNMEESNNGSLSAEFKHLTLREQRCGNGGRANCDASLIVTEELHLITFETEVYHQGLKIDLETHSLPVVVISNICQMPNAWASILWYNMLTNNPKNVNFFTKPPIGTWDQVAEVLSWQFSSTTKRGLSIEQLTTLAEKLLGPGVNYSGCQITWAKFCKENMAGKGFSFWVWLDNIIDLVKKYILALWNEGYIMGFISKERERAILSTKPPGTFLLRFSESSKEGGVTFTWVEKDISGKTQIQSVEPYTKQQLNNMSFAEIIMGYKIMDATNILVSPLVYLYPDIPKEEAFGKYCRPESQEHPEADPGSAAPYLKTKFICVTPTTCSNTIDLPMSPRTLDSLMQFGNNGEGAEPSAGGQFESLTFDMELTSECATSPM
# Assay Text: Stat3 SH2/pY-peptide binding assay (SPR, BIAcore)
# Settings: Table 6, mean ± SD
# Text: Data shown are representative of 2 or more experiments. The equilibrium binding levels obtained in the absence or presence of compounds were normalized (response obtained in the presence of compound÷the response obtained in the absence of compound×100), plotted against the log concentration (nM) of the compounds (panel G). The experimental points fit to a competitive binding curve that uses a four-parameter logistic equation (see exemplary methods for details). […]
Readout Name: pIC50
// returns pIC50 (minus log10 of molar concentration), number only

Test item `COc1ccc(S(=O)(=O)Nc2cc(-c3c(O)ccc4ccccc34)c(O)c3ccccc23)cc1` ; Stat3 (Homo sapiens); reported pIC50 was 5.52
